Target entity: T1, Human CD3eg linker (human)
T1 construct: Single-chain construct; also called recombinant human CD3
T1 chain: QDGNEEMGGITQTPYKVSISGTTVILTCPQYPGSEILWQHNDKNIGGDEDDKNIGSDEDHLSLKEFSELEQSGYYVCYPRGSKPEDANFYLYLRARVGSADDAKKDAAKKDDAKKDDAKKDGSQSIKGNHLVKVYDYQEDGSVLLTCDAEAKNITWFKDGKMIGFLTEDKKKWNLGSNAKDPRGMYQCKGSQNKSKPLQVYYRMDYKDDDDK
Assay details: SPR; fold vs parent H183/L072
The following binders are shown together with reported fold change of affinity values.
The figure you give is taken to be in fold; do not add the unit.

Illustrative cases are given below, each with its answer.
Binder	fold change of affinity / fold
H183/L072 VL Q24R (antibody, name in Kabat numbering, V domains shown) VH: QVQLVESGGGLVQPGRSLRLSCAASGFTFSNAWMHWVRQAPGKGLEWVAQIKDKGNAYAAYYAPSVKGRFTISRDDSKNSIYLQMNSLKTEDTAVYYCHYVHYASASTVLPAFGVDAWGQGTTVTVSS VL: DIVMTQSPLSLPVTPGEPASISCRASQELVHMNRNTYLHWYQQKPGQAPRLLIYKVSNRFPGVPDRFSGSGSGTDFTLKISRVEAEDVGVYYCAQGTSVPFTFGQGTKLEIK	1
H183/L072 VL R54A (antibody, name in Kabat numbering, V domains shown) VH: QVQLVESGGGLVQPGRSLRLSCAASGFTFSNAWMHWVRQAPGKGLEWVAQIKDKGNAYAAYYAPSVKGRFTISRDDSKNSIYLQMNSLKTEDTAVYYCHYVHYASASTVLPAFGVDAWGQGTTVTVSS VL: DIVMTQSPLSLPVTPGEPASISCQASQELVHMNRNTYLHWYQQKPGQAPRLLIYKVSNAFPGVPDRFSGSGSGTDFTLKISRVEAEDVGVYYCAQGTSVPFTFGQGTKLEIK	1
H183/L072 VL P56E (antibody, name in Kabat numbering, V domains shown) VH: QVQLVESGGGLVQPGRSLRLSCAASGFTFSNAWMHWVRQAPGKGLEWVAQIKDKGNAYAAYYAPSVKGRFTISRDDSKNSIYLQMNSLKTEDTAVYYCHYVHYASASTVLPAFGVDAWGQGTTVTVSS VL: DIVMTQSPLSLPVTPGEPASISCQASQELVHMNRNTYLHWYQQKPGQAPRLLIYKVSNRFEGVPDRFSGSGSGTDFTLKISRVEAEDVGVYYCAQGTSVPFTFGQGTKLEIK	3.4

[ask] Requested read-out: fold change of affinity. Entry: H183/L072 VL S52F (antibody, name in Kabat numbering, V domains shown) VH: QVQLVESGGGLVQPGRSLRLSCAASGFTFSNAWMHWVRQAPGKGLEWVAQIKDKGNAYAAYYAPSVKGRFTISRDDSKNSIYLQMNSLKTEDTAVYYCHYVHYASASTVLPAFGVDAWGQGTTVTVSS VL: DIVMTQSPLSLPVTPGEPASISCQASQELVHMNRNTYLHWYQQKPGQAPRLLIYKVFNRFPGVPDRFSGSGSGTDFTLKISRVEAEDVGVYYCAQGTSVPFTFGQGTKLEIK
[reply] 1.6

[ask] Next record, please: H183/L072 VL N30M (antibody, name in Kabat numbering, V domains shown) VH: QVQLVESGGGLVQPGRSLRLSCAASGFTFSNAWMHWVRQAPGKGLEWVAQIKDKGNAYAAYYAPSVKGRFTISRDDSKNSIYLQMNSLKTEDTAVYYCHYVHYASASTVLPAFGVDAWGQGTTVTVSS VL: DIVMTQSPLSLPVTPGEPASISCQASQELVHMNRMTYLHWYQQKPGQAPRLLIYKVSNRFPGVPDRFSGSGSGTDFTLKISRVEAEDVGVYYCAQGTSVPFTFGQGTKLEIK
[reply] 1.6

[ask] Similarly, H183/L072 VL H34G (antibody, name in Kabat numbering, V domains shown) VH: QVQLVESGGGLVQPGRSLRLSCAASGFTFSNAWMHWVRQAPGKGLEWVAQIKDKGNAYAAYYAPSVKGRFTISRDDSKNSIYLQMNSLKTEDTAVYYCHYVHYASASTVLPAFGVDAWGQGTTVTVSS VL: DIVMTQSPLSLPVTPGEPASISCQASQELVHMNRNTYLGWYQQKPGQAPRLLIYKVSNRFPGVPDRFSGSGSGTDFTLKISRVEAEDVGVYYCAQGTSVPFTFGQGTKLEIK ?
[reply] 0.3

[ask] Next: H183/L072 VL S52M (antibody, name in Kabat numbering, V domains shown) VH: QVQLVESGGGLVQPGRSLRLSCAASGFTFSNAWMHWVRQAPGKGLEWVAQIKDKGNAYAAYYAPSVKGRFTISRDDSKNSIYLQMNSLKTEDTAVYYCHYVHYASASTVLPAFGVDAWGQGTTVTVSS VL: DIVMTQSPLSLPVTPGEPASISCQASQELVHMNRNTYLHWYQQKPGQAPRLLIYKVMNRFPGVPDRFSGSGSGTDFTLKISRVEAEDVGVYYCAQGTSVPFTFGQGTKLEIK
[reply] 1.4

[ask] Now the same for H183/L072 VL E27aF (antibody, name in Kabat numbering, V domains shown) VH: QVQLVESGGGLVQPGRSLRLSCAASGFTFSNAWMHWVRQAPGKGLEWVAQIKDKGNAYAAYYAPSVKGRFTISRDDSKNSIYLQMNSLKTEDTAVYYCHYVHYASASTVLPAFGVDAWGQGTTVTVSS VL: DIVMTQSPLSLPVTPGEPASISCQASQFLVHMNRNTYLHWYQQKPGQAPRLLIYKVSNRFPGVPDRFSGSGSGTDFTLKISRVEAEDVGVYYCAQGTSVPFTFGQGTKLEIK
[reply] 1.1

[ask] Thanks! And H183/L072 VL F55T (antibody, name in Kabat numbering, V domains shown) VH: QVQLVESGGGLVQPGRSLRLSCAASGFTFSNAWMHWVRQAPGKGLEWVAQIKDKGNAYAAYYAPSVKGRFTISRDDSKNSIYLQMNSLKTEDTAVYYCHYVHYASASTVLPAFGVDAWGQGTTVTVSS VL: DIVMTQSPLSLPVTPGEPASISCQASQELVHMNRNTYLHWYQQKPGQAPRLLIYKVSNRTPGVPDRFSGSGSGTDFTLKISRVEAEDVGVYYCAQGTSVPFTFGQGTKLEIK ?
[reply] 4.2

[ask] Next binder: H183/L072 VL M27eQ (antibody, name in Kabat numbering, V domains shown) VH: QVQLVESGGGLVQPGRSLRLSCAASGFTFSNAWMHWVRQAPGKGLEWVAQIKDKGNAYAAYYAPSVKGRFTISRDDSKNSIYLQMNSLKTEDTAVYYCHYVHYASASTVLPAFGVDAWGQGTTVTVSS VL: DIVMTQSPLSLPVTPGEPASISCQASQELVHQNRNTYLHWYQQKPGQAPRLLIYKVSNRFPGVPDRFSGSGSGTDFTLKISRVEAEDVGVYYCAQGTSVPFTFGQGTKLEIK
[reply] 1.1
